molecular target: hDGAT-1 (HuTu 80) (Homo sapiens, UniProt O75907); construct: microsomal protein isolated from human duodenal adenocarcinoma (‘Hutu 80’); endogenous in cells; experiment: DGAT enzyme inhibition test, microsomal protein from human duodenal adenocarcinoma (Hutu 80); details: microsomal protein from HuTu 80
Sequence (O75907 whole entry): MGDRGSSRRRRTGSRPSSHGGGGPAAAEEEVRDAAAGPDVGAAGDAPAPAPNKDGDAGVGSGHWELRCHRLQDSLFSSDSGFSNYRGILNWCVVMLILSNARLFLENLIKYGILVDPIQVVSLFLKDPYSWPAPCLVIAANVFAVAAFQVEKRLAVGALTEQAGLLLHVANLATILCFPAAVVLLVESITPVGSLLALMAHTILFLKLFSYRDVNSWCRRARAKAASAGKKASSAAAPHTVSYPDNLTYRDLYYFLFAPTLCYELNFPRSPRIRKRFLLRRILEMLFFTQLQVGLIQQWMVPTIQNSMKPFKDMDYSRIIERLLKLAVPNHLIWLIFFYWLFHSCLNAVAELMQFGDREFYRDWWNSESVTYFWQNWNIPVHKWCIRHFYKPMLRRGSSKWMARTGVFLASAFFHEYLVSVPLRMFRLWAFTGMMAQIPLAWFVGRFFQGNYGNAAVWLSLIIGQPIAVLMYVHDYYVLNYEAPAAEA
endpoint: IC50 (µM)
Respond with the bare value in µM.

Challenge: Look up IC50 of COCCOc1cccc(C(=O)NN(C(=O)/C=C/c2cn(C(=O)OC(C)(C)C)c3ccccc23)C(C)C)c1 [Example 10] and report it.
Response given: 7.7

Challenge: Let me know recorded IC50 for CC(C)N(NC(=O)c1cccc(Br)c1)C(=O)/C=C/c1cn(C(=O)OC(C)(C)C)c2ccccc12 [Example 12] , thanks.
Response given: 2.6

Challenge: In one line, give reported IC50 of the entry CC(C)N(NC(=O)c1cccc(F)c1)C(=O)/C=C/c1cn(C(=O)OC(C)(C)C)c2ccccc12 [Example 15] .
Response given: 1.1

Challenge: Complete the entry with IC50 for CC(C)N(NC(=O)c1cccc(O)c1)C(=O)/C=C/c1cn(C(=O)OC(C)(C)C)c2ccccc12 [Example 4]
Response given: 12.4

Challenge: Tell us which IC50 value is on record for CC(C)N(NC(=O)c1ccc(Cl)cc1)C(=O)/C=C/c1cn(C(=O)OC(C)(C)C)c2ccccc12 [Example 14]
Response given: 2.7

Challenge: Report IC50, nothing else, for this molecule: CC(C)N(NC(=O)c1cccc(OCCN2CCOCC2)c1)C(=O)/C=C/c1cn(C(=O)OC(C)(C)C)c2ccccc12 [Example 8]
Response given: 9.3

Challenge: Write down IC50 measured for item COc1cccc(C(=O)NN(C(=O)/C=C/c2cn(C(=O)OC(C)(C)C)c3ccccc23)C(C)C)c1 [Example 6]
Response given: 5.2
